// provenance: patent US11873291B2

Target: recombinant human cGAS (aa147-522) (Homo sapiens, UniProt Q8N884)
Construct: recombinant human cGAS (aa147-522); His6-SUMO (cleaved yes); made in house; host or cells: E. coli BL21/pLys
Sequence (Q8N884 147-522): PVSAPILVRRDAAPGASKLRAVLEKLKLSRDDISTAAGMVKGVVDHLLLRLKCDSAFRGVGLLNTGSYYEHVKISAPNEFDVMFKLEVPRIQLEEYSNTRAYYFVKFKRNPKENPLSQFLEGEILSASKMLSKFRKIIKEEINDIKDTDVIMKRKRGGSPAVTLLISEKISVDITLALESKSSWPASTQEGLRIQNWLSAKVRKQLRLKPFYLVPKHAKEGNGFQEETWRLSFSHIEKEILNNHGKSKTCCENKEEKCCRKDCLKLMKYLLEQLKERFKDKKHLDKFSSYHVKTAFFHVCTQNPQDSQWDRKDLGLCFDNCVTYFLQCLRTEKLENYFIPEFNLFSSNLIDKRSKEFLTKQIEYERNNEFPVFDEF
Test: In vitro inhibition assay of cGAS activity (ATP consumption, KinaseGlo Max)
Assay type: biochemical
Details: Table 2, read-out: cGAS Inhibition Results IC50
# IC50 per record follows

smiles-data | experimental-readout | recorded-result
COc1ccc(-c2cc(-n3ccnc3)c3ccc(Cl)c(Cl)c3n2)cc1C(=O)O | IC50 | < 2 µM

IC50 reading for CN(CCS(N)(=O)=O)c1ccc2ccc(Cl)c(Cl)c2n1 : > 30 µM

IC50 reading for Clc1ccc2c(-n3ccnc3)cc(-c3ccc4nn[nH]c4c3)nc2c1 : 2 to 30 µM

IC50 reading for O=C(O)c1cc(-c2cc(-n3ccnc3)c3ccc(Cl)cc3n2)ccc1O : > 30 µM

IC50 reading for COc1c(Cl)ccc2c(NCCO)cc(-c3cn[nH]c3)nc12 : > 30 µM

* * *

System: cGAS activity in Reporter THP1 cell line
Test: Cellular assay to measure cGAS activity: ISRE-Gaussia luciferase reporter THP1 cells transfected with ISD
Assay type: cell-based
Details: Homo sapiens, THP-1, Table 4, Gaussia luciferase
experimental-readout: IC50

Completed entries (count: 7):
molecule | IC50
C[C@H]1CC[C@@H](C(=O)O)N1c1cc(-n2ccnc2)c2ccc(Cl)c(Cl)c2n1 | 2 to 10 µM
O=C(O)C1CC[C@H](c2ccccc2)N1c1cc(-n2ccnc2)c2ccc(Cl)c(Cl)c2n1 (some centres unmarked) | 2 to 10 µM
COC(=O)/C=C/[C@@H]1CCCN1c1cc(-n2ccnc2)c2ccc(Cl)c(Cl)c2n1 | > 10 µM
O=C(O)COC[C@@H](O)[C@@H]1CCCN1c1cc(-n2ccnc2)c2ccc(Cl)c(Cl)c2n1 | > 10 µM
O=C(O)CCOC[C@H]1CCCN1c1cc(-n2ccnc2)c2ccc(Cl)c(Cl)c2n1 | 2 to 10 µM
COC(=O)CC(C)OC[C@@H]1CCCN1c1cc(-n2ccnc2)c2ccc(Cl)c(Cl)c2n1 (some centres unmarked) | < 2 µM
O=C(O)[C@@H]1CC2(CC2)CN1c1cc(-n2ccnc2)c2ccc(Cl)c(Cl)c2n1 | 2 to 10 µM

Below: the item to evaluate.
IC50 reading for O=C(O)CCOC[C@@H]1C[C@H](Oc2ccccc2)CN1c1cc(-n2ccnc2)c2ccc(Cl)c(Cl)c2n1 : < 2 µM

* * *

Target: recombinant human cGAS (aa147-522) (Homo sapiens, UniProt Q8N884)
Construct: recombinant human cGAS (aa147-522); His6-SUMO (cleaved yes); made in house; host or cells: E. coli BL21/pLys
Assay: In vitro inhibition assay of cGAS activity (ATP consumption, KinaseGlo Max)
Type: biochemical
Settings: Table 2, read-out: cGAS Inhibition Results IC50
Protocol: Expression and Purification of Recombinant cGAS Protein: cDNA encoding full-length or amino acids […] of human cGAS was inserted into a modified pET28a vector containing an in-frame His6-SUMO tag. The E. coli strain BL21/pLys harboring the plasmid was induced with 0.5 mM IPTG at 18° C. overnight. His6-SUMO tag was removed by a SUMO protease digestion following purification of the His6-SUMO-cGAS as described previously (Sun et al, 2013, Science 339, 786). […]
pIC50: −log10 of the molar value.
# pIC50 per record follows

compound | pIC50
O=C(O)CNC(=O)[C@@H]1CCCN1c1cc(-n2ccnc2)c2ccc(Cl)c(Cl)c2n1 | > 5.70

Here OCCN(CCN1CCOCC1)c1cc(-c2cn[nH]c2)c2ccc(Cl)c(Cl)c2n1 was tested on recombinant human cGAS (aa147-522) (Homo sapiens, UniProt Q8N884), and its pIC50 came to > 5.70

Here Clc1ccc2c(-n3cncc3C3CC3)cc(-c3ccccc3)nc2c1 was tested on recombinant human cGAS (aa147-522) (Homo sapiens, UniProt Q8N884), and its pIC50 came to < 4.52

Here CN(CCNS(C)(=O)=O)c1cc(-c2cn[nH]c2)c2ccc(Cl)c(Cl)c2n1 was tested on recombinant human cGAS (aa147-522) (Homo sapiens, UniProt Q8N884), and its pIC50 came to > 5.70

Here O=C(O)c1ccc(Cl)c(-c2cc(-n3ccnc3)c3ccc(Cl)cc3n2)c1 was tested on recombinant human cGAS (aa147-522) (Homo sapiens, UniProt Q8N884), and its pIC50 came to < 4.52

Here COc1c(Br)ccc2c(-n3ccnc3)cc(-c3cccc(C(=O)O)c3)nc12 was tested on recombinant human cGAS (aa147-522) (Homo sapiens, UniProt Q8N884), and its pIC50 came to > 5.70
